pKd for assorted binders
Target: T1, GFP-9S library array, motif 4 ND N98G (synthetic construct, N98G)
T1 chain: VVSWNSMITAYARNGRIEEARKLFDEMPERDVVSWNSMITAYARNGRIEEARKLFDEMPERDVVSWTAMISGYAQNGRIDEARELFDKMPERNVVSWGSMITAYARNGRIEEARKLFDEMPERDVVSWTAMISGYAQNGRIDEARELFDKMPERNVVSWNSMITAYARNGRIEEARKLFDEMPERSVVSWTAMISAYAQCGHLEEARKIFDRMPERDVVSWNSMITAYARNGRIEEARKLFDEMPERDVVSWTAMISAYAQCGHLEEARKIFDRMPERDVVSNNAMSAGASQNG
Assay: high-throughput RNA pulldown from lysate on Ni-NTA beads; HRP: 50 mM Tris pH 8, 150 mM NaCl, 1 mM beta-mercaptoethanol, 50 ug/ml BSA, 3 ug/ml yeast RNA, 0.5% heparin; ITC and FP: Tris pH 8, 200 mM KCl, 5% glycerol; MST: 50 mM Tris pH 8, 200 mM NaCl, 1 mM DTT, BSA, heparin, 0.05% Tween 20
Conditions: tags: N-terminal His-eGFP; label: 5' Cy5
Schema: pKd number; meaning minus log10 of the concentration expressed in molar units.

AUUACACGUGA (ssRNA) [Cy5-rpoA] :: 6.40

Let us examine a further case.
Entry AUUAGACGUGA (ssRNA) [Cy5-rpoA-G] — recorded pKd = 7.49
